B1: TRIM39 (parent)
chain: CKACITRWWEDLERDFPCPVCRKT

# Variants of: B1
# assay_procedure: protein stability index of a GFP-peptide fusion (GPS, HEK-293T) (PSI 1-6); higher = more stable;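 also: lentivirally expressed fusions sorted by FACS into six bins by GFP to DsRed ratio, PSI derived from sequencing read proportions per bin multiplied by bin number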
# measurement_conditions: c terminus: a fixed tail appended

# monomer_sequence, protein stability index
measured = [
    ("CKACIERWWEDLERDFPCPVCRKT [T6E]", 4.03),
    ("CKACITRTWEDLERDFPCPVCRKT [W8T]", 4.09),
    ("CKACITRWWEDLERDFPCPVCRKE [T24E]", 3.98),
    ("CKACITRWWEDLERDFPCPACRKT [V20A]", 4.24),
    ("GKACITRWWEDLERDFPCPVCRKT [C1G]", 1.74),
    ("CKACITRWWEDLERDFPCPVCRKG [T24G]", 4.24),
    ("CKACITRWWEDLERDYPCPVCRKT [F16Y]", 3.7),
    ("CKACITRWWEDLERDFPCCVCRKT [P19C]", 2.26),
    ("MKACITRWWEDLERDFPCPVCRKT [C1M]", 2.26),
    ("CKACINRWWEDLERDFPCPVCRKT [T6N]", 4.38),
    ("CKACITRWQEDLERDFPCPVCRKT [W9Q]", 4.69),
    ("CKAQITRWWEDLERDFPCPVCRKT [C4Q]", 2.41),
    ("CKACITRWWEDLERDFPCPVYRKT [C21Y]", 3.73),
    ("CKACITRWWTDLERDFPCPVCRKT [E10T]", 4.08),
    ("CKACITRWWEDLERDFPCDVCRKT [P19D]", 3.85),
    ("CKACITRWWEDLIRDFPCPVCRKT [E13I]", 3.08),
    ("CKACITRWWEDLERDFPCPVFRKT [C21F]", 1.43),
    ("CKACIDRWWEDLERDFPCPVCRKT [T6D]", 4.27),
    ("CKACITFWWEDLERDFPCPVCRKT [R7F]", 3.79),
    ("CKACICRWWEDLERDFPCPVCRKT [T6C]", 2.57),
    ("CKHCITRWWEDLERDFPCPVCRKT [A3H]", 3.67),
    ("CKACITRWWEDLERDFPCPVCRYT [K23Y]", 2.29),
    ("CKCCITRWWEDLERDFPCPVCRKT [A3C]", 3.57),
    ("CKACITRWWEGLERDFPCPVCRKT [D11G]", 2.85),
]
